- test.system: Mitogen-activated protein kinase kinase kinase 2 (Homo sapiens) (UniProt Q9Y2U5)
- assay.comment: wildtype MEKK2 PB1-MEK5 interaction enhancers or blockers – biochemical, single concentration, multiplex bead flow cytometry, confirmation (AID 1892)
- assay.setup: Alexa488-MEK5 binding to MEKK2 WT, at 10 µM, actives lie on both sides
Hit rate of the full screen: of about 5,900 compounds, about 140 (2.4%) were called active. Rule as the data show it: active = binding response below about 16% or above about 210%; inactive = in between. This is one part of a sample in which actives are shown more often than they occur.
Answer with one of the outcomes given here: active, inactive

C[N+](C)(C)CCNC(=O)c1c(O)c2c([nH]c1=O)CCCC2
inactive
O=C(NCC1CCCCC1)c1cc(S(=O)(=O)N2CCCCC2)ccc1N1CCOCC1
inactive
COc1cccc(Nc2ncccc2C(=O)O)c1
inactive
Cc1cn(COC/C=C/c2ccccc2)c(=O)[nH]c1=O
inactive

Q: For N=C1/C(=C/c2cccn2-c2cccc([N+](=O)[O-])c2)C(=O)N=C2SC=CN12 , what call appears in the results of this test?
A: inactive

Q: Dear colleague, could you share the recorded outcome for CCCCn1c(SCC(=O)NCCc2ccc(OC)c(OC)c2)nc2c1c(=O)n(C)c(=O)n2C when you have a moment?
A: inactive

Q: Check the results log: what was the call for CCN1CCN(CCNC(=O)c2ccc(/C=C3/Sc4ccccc4N(Cc4cccc(C)c4)C3=O)cc2)CC1 ?
A: active

Q: // param item: COCCN1C=C2C(=O)C(C)(OC(=O)C3CCCC3)C(=O)C=C2C=C1c1ccsc1 (configuration not stated) ; yields the recorded call
A: inactive

Q: Could you please tell me the result logged for CCOC(=O)c1c(-c2ccccc2)csc1NC(=S)NC(=O)c1ccccc1 in this assay?
A: inactive

---

- test.system: Mitogen-activated protein kinase kinase kinase 2 (Homo sapiens) (UniProt Q9Y2U5)
- assay.comment: wildtype MEKK2 PB1-MEK5 interaction enhancers or blockers – biochemical, single concentration, multiplex bead flow cytometry, confirmation (AID 1892)
- assay.setup: Alexa488-MEK5 binding to MEKK2 WT, at 10 µM, actives lie on both sides
In all, about 5,900 compounds went through this assay and about 140 (2.4%) were called active. Rule as the data show it: active = binding response below about 16% or above about 210%; inactive = in between. The entries come from a sample that favours actives as a whole.
// classify into active, inactive

Q: Tell me the assay call for CCc1nnc(NC(=O)c2sc3nc(C)cc(COC)c3c2N)s1 please.
A: inactive

Q: Field: outcome | Entry: O=C(COC(=O)CNC(=O)c1ccco1)Nc1ccc(F)cc1
A: inactive

---

- test.system: Mitogen-activated protein kinase kinase kinase 2 (Homo sapiens)
- assay.comment: wildtype MEKK2 PB1-MEK5 interaction enhancers or blockers – biochemical, single concentration, multiplex bead flow cytometry, confirmation (AID 1892)
- assay.setup: Alexa488-MEK5 binding to MEKK2 WT, at 10 µM, actives lie on both sides
Among all 5,900 compounds or so, about 140 (2.4%) were called active. The entries come from a sample that favours actives as a whole.
Would you kindly list binding response (% of control) for each of these compounds?

Previously resolved entries follow.
CCOc1ccc(NC(=O)Nc2cc(C)ccc2OC)cc1
106% (inactive)
CC(C)c1ccc(C(=O)NCCCc2ccccc2)cc1
94% (inactive)
c1ccc(CN2CCC(N=C3NN=C(c4ccc5c(c4)OCCO5)CS3)CC2)cc1
164% (inactive)
CCNC(=O)CSc1nc(-c2ccccc2)cs1
99% (inactive)
FC(F)(F)c1nc(-c2ccccc2)ncc1-c1nnnn1-c1ccccc1
96% (inactive)
CN(C)CCCNC(=S)N1CCN(c2nc(-c3ccccc3)cs2)CC1
108% (inactive)
O=C(Cc1cccs1)N/N=C/c1ccc(OCc2ccccc2)cc1
101% (inactive)
CCOC(=O)c1cc2c(nc1NC(=S)Nc1ccccc1)CC(C)(CC)OC2 (stereo unspecified)
101% (inactive)

Parameter requested: binding response (% of control). Apply to each item below.
1. CNC(=O)/C(=C\C=C\c1ccccc1)NC(=O)c1ccc([N+](=O)[O-])cc1
2. COc1ccccc1N1CCN(CCCCOc2ccc(F)cc2)CC1
3. O=C(Nc1cccnc1)c1cc(Cl)ccc1Cl

A:
1: 99% (inactive); 2: 109% (inactive); 3: 109% (inactive)
